System: tet operator sequence
Protocol: β-galactosidase activity of a tetracycline-regulated promoter in transformed E. coli with revTetR, in the presence and absence of anhydrotetracycline (atc)
Type: cell-based, Escherichia coli
Condition notes: RevTetR isolate cultured in the absence of anhydrotetracycline (ATC)
Measured quantity: β-Galactosidase Activity, Cultured Without ATC

Reported β-Galactosidase Activity, Cultured Without ATC for TetRrev6-26: revTetR(BD) Y93F G96W A97E H100N (protein, Modified tetracycline repressor, revTetR(BD) Y93F G96W A97E H100N) MSRLDKSKVINSALELLNEVGIEGLTTRKLAQKLGVEQPTLYWHVKNKRALLDALAVEILARHHDYSLPAAGESWQSFLRNNAMSFRRALLRFRDWEKVNLGTRPDEKQYDTVETQLRFMTENGFSLRDGLYAISAVSHFTLGAVLEQQEHTAALTDRPAAPDENLPPLLREALQIMDSDDGEQAFLHGLESLIRGFEVQLTALLQIV : what is it?
53.6535

Reported β-Galactosidase Activity, Cultured Without ATC for TetRrev96/99-2: revTetR(BD) G99K V99A (protein, Modified tetracycline repressor, revTetR(BD) G99K V99A) MSRLDKSKVINSALELLNEVGIEGLTTRKLAQKLGVEQPTLYWHVKNKRALLDALAVEILARHHDYSLPAAGESWQSFLRNNAMSFRRALLRYRDKAKAHLGTRPDEKQYDTVETQLRFMTENGFSLRDGLYAISAVSHFTLGAVLEQQEHTAALTDRPAAPDENLPPLLREALQIMDSDDGEQAFLHGLESLIRGFEVQLTALLQIV : what is it?
94.5832
